- Test system: Plasmodium falciparum
- Assay method text: Antiplasmodial activity against late ring stage Plasmodium falciparum HB3 after 1 hr by acridine orange staining-based flow cytometric analysis
- Type: functional, organism-based
- Setup conditions: HB3, 1 h
Value kind: IC50 (µM)

INSERT INTO results (test_smiles, system_under_test, reported_measurement) VALUES
  ('O=C(Cn1c(-c2ccccn2)nc2ccccc21)c1ccc(-c2ccccc2)cc1', 'Plasmodium falciparum', 0.166);

---

The following compounds have recorded IC50 on Cathepsin D (Homo sapiens).
Sequence (P07339 65-162 limits assumed): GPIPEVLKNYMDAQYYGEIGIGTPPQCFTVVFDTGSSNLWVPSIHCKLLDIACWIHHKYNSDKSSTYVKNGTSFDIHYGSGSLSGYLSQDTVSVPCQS
Sequence (P07339 169-412 limits assumed): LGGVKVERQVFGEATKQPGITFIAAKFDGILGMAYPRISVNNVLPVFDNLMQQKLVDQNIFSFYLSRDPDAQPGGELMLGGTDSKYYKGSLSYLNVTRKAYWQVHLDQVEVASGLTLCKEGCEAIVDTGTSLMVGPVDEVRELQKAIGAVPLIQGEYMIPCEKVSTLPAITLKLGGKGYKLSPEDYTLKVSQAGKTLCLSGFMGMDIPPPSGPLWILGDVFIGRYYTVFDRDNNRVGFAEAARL
Value kind: IC50 (µM)

INSERT INTO assay_data (test_smiles, value_kind, reported_measurement) VALUES
  ('O=C(Cn1c(-c2ccccn2)nc2ccccc21)c1cccc([N+](=O)[O-])c1', 'IC50', 21.2),
  ('O=C(Cn1c(-c2ccccn2)nc2ccccc21)c1ccccc1[N+](=O)[O-]', 'IC50', 39.2),
  ('O=C(Cn1c(-c2ccccn2)nc2ccccc21)c1ccc(F)cc1F', 'IC50', 44.5),
  ('O=C(Cn1c(-c2ccccn2)nc2ccccc21)c1ccc(-c2ccccc2)cc1', 'IC50', 2),
  ('COc1ccc(C(=O)Cn2c(-c3ccccn3)nc3ccccc32)cc1', 'IC50', 14.2),
  ('O=C(Cn1c(-c2ccccn2)nc2ccccc21)c1ccc(O)c(O)c1', 'IC50', 28.5),
  ('O=C(Cn1c(-c2ccccn2)nc2ccccc21)c1ccc([N+](=O)[O-])cc1', 'IC50', 17.8);
